From: the supplement of paper PMC6470124

Please respond with reported absolute recovery for every item in the list.
- procedure-summary: absolute recovery over mixed-bed multilayer solid-phase extraction; higher = better recovery
- condition-info: nanopure water; enrichment method: SPE
Respond with a number, then the unit of measure.

Use the examples below as a reference point.
compound: NC1=C(Cl)C(=O)c2ccccc2C1=O
absolute recovery: 93.9%

compound: O=C1Nc2ccc(Cl)cc2C(c2ccccc2Cl)=NC1O (centres undefined)
absolute recovery: 104%

compound: NS(=O)(=O)c1cc(C(=O)[O-])c(NCc2ccco2)cc1Cl
absolute recovery: 77.3%

Each compound below has a recorded value; state its absolute recovery.
1. CC1=NNC(=O)N(N=Cc2cccnc2)C1
2. Cc1cccc(C)c1N(Cn1cccn1)C(=O)CS(=O)(=O)[O-]
3. COC=C(C(=O)[O-])c1ccccc1Oc1cc(Oc2ccccc2C#N)ncn1

1: 118%; 2: 98.7%; 3: 96.4%

Each compound below has a recorded value; state its absolute recovery.
1. CC1(C)CCC(Cc2ccc(Cl)cc2)C1(O)Cn1cncn1 (centres undefined)
2. COc1nc(C)nc(N)n1
3. C=CCOc1ccccc1OCC(O)C[NH2+]C(C)C (centres undefined)
4. CCCCCCCCn1sc(Cl)c(Cl)c1=O
5. CC1COc2c(N3CCN(C)CC3)c(F)cc3c(=O)c(C(=O)[O-])cn1c23 (centres undefined)

95.9%
102%
78.4%
93%
88.7%

Each compound below has a recorded value; state its absolute recovery.
1. CCOC(=O)OC1=C(c2cc(C)ccc2C)C(=O)NC12CCC(OC)CC2 (centres undefined)
2. CCCC1CC(C(=O)NC(C(C)Cl)C2OC(SC)C(O)C(O)C2O)[NH+](C)C1 (centres undefined)

1: 12%; 2: 90.1%

Each compound below has a recorded value; state its absolute recovery.
1. Cn1ncc(N)c(Cl)c1=O
2. CCn1cc(C(=O)[O-])c(=O)c2cc(F)c(N3CC[NH2+]CC3)cc21

1: 91.5%; 2: 75.9%

Each compound below has a recorded value; state its absolute recovery.
1. CCC(=[NH+]OCC=CCl)C1=C([O-])CC(C2CCOCC2)CC1=O (centres undefined)
2. CSc1nc(NC(C)C)nc(NC(C)C)n1

["98.7%", "97.7%"]

Each compound below has a recorded value; state its absolute recovery.
1. CNC(=O)Nc1ccc(Cl)c(Cl)c1
2. OCC1OC(OC2(CCl)OC(CCl)C(O)C2O)C(O)C(O)C1Cl (centres undefined)

1: 99.4%; 2: 95%
